system: MEG-01 (Chronic Myelogenous Leukemia); test: combination Emax (second highest fraction inhibited in the dose matrix, 72 h); higher = more inhibition; extreme values may be limits of the assay
Class 1: combination Emax at least 0.9. Class -1: combination Emax below 0.9.

1. CCc1c2c(nc3ccc(O)cc13)-c1cc3c(c(=O)n1C2)COC(=O)[C@]3(O)CC [SN-38] + CN(C)CCCOc1ccc(-c2ccc3ncc4c(c3c2)n(C2CCOCC2)c(=O)n4C)cn1 [AZD0156] (first compound max 0.3 µM, 7x7, partner max 1 µM); -1
2. Cc1nc(-c2cn3c(n2)-c2ccc(-c4cnn(C(C)(C)C(N)=O)c4)cc2OCC3)n(C(C)C)n1 [Taselisib] + O=C(Nc1ccc2[nH]nc(-c3ccncc3)c2c1)[C@@H]1CCN(CC(=O)N2CCN(c3ccc(-c4ncccn4)cc3)CC2)C1 [SCH772984] (first compound max 10 µM, 7x7, partner max 5 µM); 1
3. CC1(C)CCC(CN2CCN(c3ccc(C(=O)NS(=O)(=O)c4ccc(NCC5CCOCC5)c([N+](=O)[O-])c4)c(Oc4cnc5[nH]ccc5c4)c3)CC2)=C(c2ccc(Cl)cc2)C1 [Venetoclax] + CS(=O)(=O)CCNCc1ccc(-c2ccc3ncnc(Nc4ccc(OCc5cccc(F)c5)c(Cl)c4)c3c2)o1 [Lapatinib] (first compound max 1 µM, 7x7, partner max 10 µM); -1
4. Cc1c2c(nn1C)CSCc1cc(n(C)n1)CSc1cc(c3ccccc3c1)OCCCc1c(C(=O)O)n(C)c3c-2c(Cl)ccc13 [AZD5991] + Cn1cnc2c(F)c(Nc3ccc(Br)cc3Cl)c(C(=O)NOCCO)cc21 [Selumetinib] (first compound max 1 µM, 7x7, partner max 3 µM); -1
5. C[C@@H](Oc1cc(-c2cnn(C3CCNCC3)c2)cnc1N)c1c(Cl)ccc(F)c1Cl [Crizotinib] + CC1=C(C(=CC=C1)Cl)NC(=O)C2=CN=C(S2)NC3=CC(=NC(=N3)C)N4CCN(CC4)CCO [Dasatinib] (first compound max 10 µM, 7x7, partner max 2 µM); 1
6. Cc1cc2ncnn2cc1Nc1ncc2c(n1)n(C1CCOCC1)c(=O)n2C [AZD7648] + COc1cc([C@@H]2c3cc4c(cc3[C@@H](O[C@@H]3O[C@@H]5CO[C@@H](C)O[C@H]5[C@H](O)[C@H]3O)[C@H]3COC(=O)[C@H]23)OCO4)cc(OC)c1O [Etoposide] (first compound max 10 µM, 7x7, partner max 10 µM); -1
7. C=CCn1c(=O)c2cnc(Nc3ccc(N4CCN(C)CC4)cc3)nc2n1-c1cccc(C(C)(C)O)n1 [AZD1775] + O=C(c1cc(Cc2n[nH]c(=O)c3ccccc23)ccc1F)N1CCN(C(=O)C2CC2)CC1 [Olaparib] (first compound max 1 µM, partner max 10 µM); -1

---

Listed here: items and their measured combination Emax.
system: JHH-6 (Hepatocellular Carcinoma); test: combination Emax (second highest fraction inhibited in the dose matrix, 72 h); higher = more inhibition; extreme values may be limits of the assay
Measurement Type: combination Emax

1) Cn1cnc2c(F)c(Nc3ccc(Br)cc3Cl)c(C(=O)NOCCO)cc21 [Selumetinib] + CC(C)n1c(=O)n(C)c2cnc3cc(F)c(-c4ccc(OCCCN5CCCCC5)nc4)cc3c21 [AZD1390] (first compound max 10 µM, 7x7, partner max 0.3 µM); 0.168
2) CN(CCO)CC[C@H](CSc1ccccc1)Nc1ccc(S(=O)(=O)NC(=O)c2ccc(N3CCC([C@@H](O)c4ccccc4-c4ccc(Cl)cc4)CC3)cc2)cc1S(=O)(=O)C(F)(F)F [AZD4320] + C[C@@H](Nc1cc(F)cc(F)c1)c1cc(C(=O)N(C)C)cc2c(=O)cc(N3CCOCC3)oc12 [AZD8186] (first compound max 1 µM, 7x7, partner max 3 µM); 0.326
3) CN(C)CCCOc1ccc(-c2ccc3ncc4c(c3c2)n(C2CCOCC2)c(=O)n4C)cn1 [AZD0156] + C[C@@H]1COCCN1C2=NC(=NC(=C2)C3(CC3)[S@](=N)(=O)C)C4=C5C=CNC5=NC=C4 [AZD6738] (first compound max 1 µM, 7x7, partner max 10 µM); 0.337
